Experiment: refractive index (Na D-line) (dimensionless); xn = mol fraction of the nth substance listed
Settings: 298.15 K; 101 kPa; Liquid; Standard Abbe refractometry; x1 = 0.15
READOUT: refractive index
Please reply with the value in numeric form only.

## Task Name the reported refractive index value associated with the molecule C=C[Si](C)(C)O[Si](C)(C)C=C [1,3-diethenyl-1,1,3,3-tetramethyldisiloxane] + COc1ccccc1
## Result 1.48807

## Task Name the recorded refractive index for C=C[Si](C)(C)O[Si](C)(C)C=C [1,3-diethenyl-1,1,3,3-tetramethyldisiloxane] + Clc1ccccc1 .
## Result 1.492

## Task Could you share which refractive index value was measured for C=C[Si](C)(C)O[Si](C)(C)C=C [1,3-diethenyl-1,1,3,3-tetramethyldisiloxane] + O=[N+]([O-])c1ccccc1 ?
## Result 1.51459

## Task Which value of refractive index has been reported for C=C[Si](C)(C)O[Si](C)(C)C=C [1,3-diethenyl-1,1,3,3-tetramethyldisiloxane] + Fc1ccccc1 in the records?
## Result 1.44775

* * *

Conditions: 293.15 K; 101 kPa; Liquid; Vibrating tube method
Binary call on mass density: TRUE from 1000 kg/m3 upward, FALSE beneath that.

## Task Given "O=[N+]([O-])c1ccccc1" , state whether its mass density is at least 1000 kg/m3.
## Result TRUE

## Task Reported mass density reaches at least 1000 kg/m3 for "CCc1ccccc1" ?
## Result FALSE

## Task Is it the case that "Clc1ccccc1" has mass density reaching or exceeding 1000 kg/m3?
## Result TRUE

## Task # bool: mass density of "C=C[Si](C)(C)O[Si](C)(C)C=C" >= 1000 kg/m3
## Result FALSE

* * *

Test: refractive index (Na D-line) (dimensionless); xn = mol fraction of the nth substance listed
Details: 288.15 K; 101 kPa; Liquid; Standard Abbe refractometry; x1 = 0.15
Please respond with reported refractive index for every item in the list.
# output: bare number, no unit

## Task Tell me the measured refractive index of C=C[Si](C)(C)O[Si](C)(C)C=C [1,3-diethenyl-1,1,3,3-tetramethyldisiloxane] + O=[N+]([O-])c1ccccc1 , please.
## Result 1.51955

## Task Quick one: refractive index of C=C[Si](C)(C)O[Si](C)(C)C=C [1,3-diethenyl-1,1,3,3-tetramethyldisiloxane] + COc1ccccc1 ?
## Result 1.49337

## Task Reported refractive index for C=C[Si](C)(C)O[Si](C)(C)C=C [1,3-diethenyl-1,1,3,3-tetramethyldisiloxane] + Fc1ccccc1 : what is it?
## Result 1.45349

## Task refractive index for C=C[Si](C)(C)O[Si](C)(C)C=C [1,3-diethenyl-1,1,3,3-tetramethyldisiloxane] + Clc1ccccc1 ?
## Result 1.49759

* * *

Test: xn = mol fraction of the nth substance listed
Settings: 303.15 K; 101 kPa; Liquid; Vibrating tube method; x1 = 0.15
READOUT: mass density (kg/m3)
Value expressed in kg/m3; do not type the unit.

## Task Tell me the measured mass density of C=C[Si](C)(C)O[Si](C)(C)C=C [1,3-diethenyl-1,1,3,3-tetramethyldisiloxane] + Clc1ccccc1 , please.
## Result 1017.01

## Task Consider the compound shown here: C=C[Si](C)(C)O[Si](C)(C)C=C [1,3-diethenyl-1,1,3,3-tetramethyldisiloxane] + O=[N+]([O-])c1ccccc1 What is its recorded mass density?
## Result 1092.67

## Task Which measured mass density value corresponds to C=C[Si](C)(C)O[Si](C)(C)C=C [1,3-diethenyl-1,1,3,3-tetramethyldisiloxane] + Fc1ccccc1 ?
## Result 951.1

## Task Recorded mass density of C=C[Si](C)(C)O[Si](C)(C)C=C [1,3-diethenyl-1,1,3,3-tetramethyldisiloxane] + COc1ccccc1 , please.
## Result 939.38

* * *

Settings: 288.15 K; 101 kPa; Liquid; Vibrating tube method
Numbers after ± are expanded uncertainties.
READOUT: mass density
Your answer should be a number followed by the unit of measure.

## Task Query: mass density; subject: C=C[Si](C)(C)O[Si](C)(C)C=C [1,3-diethenyl-1,1,3,3-tetramethyldisiloxane]
## Result 817.77 ± 1 kg/m3

## Task What value of mass density has been recorded for this entry: Fc1ccccc1 [fluorobenzene]
## Result 1030.93 ± 1 kg/m3

## Task Which value of mass density has been reported for COc1ccccc1 [anisole] in the records?
## Result 998.62 ± 1 kg/m3

## Task # input molecule: CCc1ccccc1 [ethylbenzene] ; wanted: its mass density
## Result 871.3 ± 1 kg/m3

## Task If you can, please state the reported mass density value of Clc1ccccc1 [chlorobenzene] .
## Result 1111.89 ± 1 kg/m3

## Task Sample O=[N+]([O-])c1ccccc1 [nitrobenzene] — what was its mass density?
## Result 1208.01 ± 1 kg/m3

* * *

Experiment: refractive index (Na D-line) (dimensionless)
Settings: 283.15 K; 101.33 kPa; Liquid; Standard Abbe refractometry
READOUT: refractive index
Please state the value as a number alone, without comment.

## Task If you can, please state the reported refractive index value of CCc1ccccc1 [ethylbenzene] .
## Result 1.50118

## Task Given Fc1ccccc1 [fluorobenzene] , state its recorded refractive index.
## Result 1.47152

## Task Returns the measured refractive index for the input compound. Input: COc1ccccc1 [anisole]
## Result 1.52242

## Task GET /values?readout=refractive index&item= O=[N+]([O-])c1ccccc1 [nitrobenzene]
## Result 1.55729

## Task Would you mind telling me what refractive index value was observed for Clc1ccccc1 [chlorobenzene] ?
## Result 1.52992

## Task Please look up its refractive index: C=C[Si](C)(C)O[Si](C)(C)C=C [1,3-diethenyl-1,1,3,3-tetramethyldisiloxane]
## Result 1.41766

* * *

Experiment: refractive index (Na D-line) (dimensionless)
Conditions: 298.15 K; 101.33 kPa; Liquid; Standard Abbe refractometry
Would you kindly list refractive index for each of these compounds?
Field format: numeric only.

## Task Given COc1ccccc1 [anisole] , state its recorded refractive index.
## Result 1.5146

## Task Would you kindly share the measured refractive index for O=[N+]([O-])c1ccccc1 [nitrobenzene] ?
## Result 1.54992

## Task Fill blank: measured refractive index of the compound CCc1ccccc1 [ethylbenzene] is ____.
## Result 1.49301

## Task Endpoint output: refractive index of Clc1ccccc1 [chlorobenzene] . Value?
## Result 1.52168

## Task Could you share which refractive index value was measured for Fc1ccccc1 [fluorobenzene] ?
## Result 1.46283

## Task refractive index for C=C[Si](C)(C)O[Si](C)(C)C=C [1,3-diethenyl-1,1,3,3-tetramethyldisiloxane] ?
## Result 1.4097

* * *

Assign mass density to each entry below.
Test: xn = mol fraction of the nth substance listed
Conditions: 303.15 K; 101 kPa; Liquid; Vibrating tube method; x1 = 0.6
Return type: number; implicit unit kg/m3.

## Task Need mass density, item C=C[Si](C)(C)O[Si](C)(C)C=C [1,3-diethenyl-1,1,3,3-tetramethyldisiloxane] + Fc1ccccc1
## Result 848.77

## Task Requested field: mass density. Item: C=C[Si](C)(C)O[Si](C)(C)C=C [1,3-diethenyl-1,1,3,3-tetramethyldisiloxane] + COc1ccccc1
## Result 850.33

## Task GET /values?readout=mass density&item= C=C[Si](C)(C)O[Si](C)(C)C=C [1,3-diethenyl-1,1,3,3-tetramethyldisiloxane] + CCc1ccccc1
## Result 819.75

## Task What value of mass density has been reported for the following molecule? C=C[Si](C)(C)O[Si](C)(C)C=C [1,3-diethenyl-1,1,3,3-tetramethyldisiloxane] + Clc1ccccc1
## Result 873.73

* * *

Test: xn = mol fraction of the nth substance listed
Conditions: 298.15 K; 101 kPa; Liquid; Vibrating tube method; x1 = 0.25
Would you kindly list mass density for each of these molecules?
Answer with a number only, understood to be in kg/m3.

## Task Which mass density is listed for C=C[Si](C)(C)O[Si](C)(C)C=C [1,3-diethenyl-1,1,3,3-tetramethyldisiloxane] + O=[N+]([O-])c1ccccc1 ?
## Result 1042.87

## Task Look up mass density: C=C[Si](C)(C)O[Si](C)(C)C=C [1,3-diethenyl-1,1,3,3-tetramethyldisiloxane] + CCc1ccccc1
## Result 844.02

## Task Given the entry C=C[Si](C)(C)O[Si](C)(C)C=C [1,3-diethenyl-1,1,3,3-tetramethyldisiloxane] + Clc1ccccc1 , report its measured mass density.
## Result 981.23

## Task Param item = C=C[Si](C)(C)O[Si](C)(C)C=C [1,3-diethenyl-1,1,3,3-tetramethyldisiloxane] + Fc1ccccc1 ; retrieve measured mass density.
## Result 926.13

* * *

Assay: refractive index (Na D-line) (dimensionless); xn = mol fraction of the nth substance listed
Settings: 283.15 K; 101 kPa; Liquid; Standard Abbe refractometry; x1 = 0.25
Provide the recorded refractive index for the entries that follow.
The answer should be written as a number, with no unit following it.

## Task What refractive index value was documented for this molecule, C=C[Si](C)(C)O[Si](C)(C)C=C [1,3-diethenyl-1,1,3,3-tetramethyldisiloxane] + Clc1ccccc1 ?
## Result 1.4846

## Task Which refractive index is listed for C=C[Si](C)(C)O[Si](C)(C)C=C [1,3-diethenyl-1,1,3,3-tetramethyldisiloxane] + CCc1ccccc1 ?
## Result 1.47011

## Task Please look up its refractive index: C=C[Si](C)(C)O[Si](C)(C)C=C [1,3-diethenyl-1,1,3,3-tetramethyldisiloxane] + Fc1ccccc1
## Result 1.44858

## Task For the molecule shown here, C=C[Si](C)(C)O[Si](C)(C)C=C [1,3-diethenyl-1,1,3,3-tetramethyldisiloxane] + O=[N+]([O-])c1ccccc1 , give the reported refractive index.
## Result 1.50266
